I'd be grateful if you could share measured TGI for these entries.
System: UO-31 renal
Method summary: NCI tumour cell line growth inhibition, 48 h

[in] // TGI lookup, key: Cc1ccc(Nc2nnc(-c3ccc4c(c3)OCO4)o2)c(C)c1
[out] > 100 µM

[in] // TGI lookup, key: Oc1ccc(Br)cc1C=Nc1ccc(N=Cc2cc(Br)ccc2O)cc1
[out] > 100 µM

[in] // TGI lookup, key: CC/C(Cl)=N\OC(=O)Nc1ccc(F)c([N+](=O)[O-])c1
[out] 14.2 µM

[in] // TGI lookup, key: S=C1SC2=Nc3ccccc3CN2C2=NCCN12
[out] > 100 µM

[in] // TGI lookup, key: Nc1ccc2nc3n(c2c1)C(=O)c1ccccc1-3
[out] > 100 µM

[in] // TGI lookup, key: CC(C(=O)n1c2ccccc2c2ccccc21)N(c1ccccc1)c1ccccc1 (stereo unspecified)
[out] 35.1 µM

[in] // TGI lookup, key: Cc1cn2c(C)csc2c1P(=O)(OC(C)C)OC(C)C
[out] > 100 µM

[in] // TGI lookup, key: CCCCCCCCCCCCOC1C(C(CC(=O)NCCN2CCCC2)NS(=O)(=O)c2cc(Cl)cc(Cl)c2)OC2OC(C)(C)OC21 (stereo unspecified)
[out] 3.44 µM

[in] // TGI lookup, key: CCOC(=O)C1CN(C2CC2)CCC1=O (stereo unspecified)
[out] > 100 µM

[in] // TGI lookup, key: CCOC(=O)[C@@H]1ON2O[C@@H](OC3CCCC3(c3ccccc3)c3ccccc3)C[C@H]3OC(=O)[C@@H]1C32 (stereo partly specified)
[out] 41.1 µM

[in] // TGI lookup, key: O=C1CCCc2cc3c(cc21)CC1(C3)Cc2ccc3c(c2C1)C(=O)CCC3 (stereo unspecified)
[out] > 100 µM

[in] // TGI lookup, key: O=C(c1ccco1)C1CC(c2c(O)ccc3ccccc23)=NN1 (stereo unspecified)
[out] 23.1 µM

[in] // TGI lookup, key: CCCCC/C(C=O)=C\c1ccccc1
[out] > 100 µM

[in] // TGI lookup, key: Cn1cc(-c2ccc(-c3cncc(Cl)c3N3CCC4(CCNC4=O)CC3)cc2)cn1
[out] > 100 µM

[in] // TGI lookup, key: COc1cc(CC(C)N)ccc1O (stereo unspecified)
[out] > 100 µM

[in] // TGI lookup, key: O=c1c2ccccc2nc(-c2ccccc2)n1NC(=S)Nc1ccccc1
[out] > 100 µM

[in] // TGI lookup, key: N.N.NCCCCCCCCCN.O=C([O-])CC(=O)[O-].O=C([O-])CC(=O)[O-].[Pt+4].[Pt+4]
[out] > 100 µM

[in] // TGI lookup, key: O/C(=C\c1nc2ccccc2nc1NC12CC3CC(CC(C3)C1)C2)c1ccc(Br)cc1
[out] > 10 µM

[in] // TGI lookup, key: O=C1c2cccc(NCCNCCO)c2C(=O)c2cccc(NCCNCCO)c21
[out] 25.9 µM

[in] // TGI lookup, key: CCCCN(CCCC)C(=C(C(Cl)=C(Cl)Cl)[N+](=O)[O-])N(CCCC)CCCC
[out] > 100 µM

[in] // TGI lookup, key: O=C(OCc1ccccc1)C(Cc1ccccc1)N(Cc1ccccc1)Cc1ccccc1 (stereo unspecified)
[out] > 100 µM

[in] // TGI lookup, key: COP(=O)(OC)C12CCOCCN1c1ccccc1C2=O (stereo unspecified)
[out] > 100 µM

[in] // TGI lookup, key: Cn1c(=O)c2c(ncn2CC(=O)Nc2ccc(-c3ccccc3)nn2)n(C)c1=O
[out] > 100 µM

[in] // TGI lookup, key: COc1cc(C(=O)C/C(CCC(=O)Nc2ccc(Cl)cc2Cl)=N/NC(=O)C(=O)NN)ccc1O
[out] > 100 µM

[in] // TGI lookup, key: COC1=C(Br)C(=O)c2nc(C)ccc2C1=O
[out] 32.4 µM

[in] // TGI lookup, key: CCOC(CN(C)C(=S)Nc1cccc2ccccc12)OCC
[out] > 10 µM

[in] // TGI lookup, key: Cc1cccc(C(C)C)c1NC(=O)C(=O)C(C(=O)c1ccccc1F)C1OC(=O)c2ccccc21 (stereo unspecified)
[out] 38.3 µM

[in] // TGI lookup, key: O=C1CCc2ccc3c(c21)CC1(Cc2ccccc2C1)C3
[out] 34 µM

[in] // TGI lookup, key: C=C1CC[C@@H](C(C)C)C[C@@H]2[C@H]([C@H](O)C[C@]2(C)O)[C@@]2(C)CC[C@@H]1O2
[out] 31.1 µM

[in] // TGI lookup, key: O=C(Nc1ccc(-n2cc(-c3ccncc3)c(-c3ccc(O)c(Cl)c3)n2)cc1)Nc1cccc(Cl)c1Cl
[out] > 32.5 µM

[in] // TGI lookup, key: O=C1C(Cl)=C(Nc2ccccc2O)C(=O)N1Cc1ccccc1
[out] 29.3 µM

[in] // TGI lookup, key: CCOc1ccccc1NC(=O)C(=O)Cc1nc2ccccc2s1
[out] > 100 µM

[in] // TGI lookup, key: COC(=O)C1OC(O[C@H]2CC[C@]3(C)[C@H]4CC=C5[C@@H]6CC(C)(C)CC[C@]6(C(=O)OC6OCC(O)C(O)C6OC6OC(C)C(OC7OCC(OC8OCC(O)C(O)C8O)C(O)C7O)C(O)C6O)[C@H](O)C[C@@]5(C)[C@]4(C)CC[C@H]3C2(C)C)C(O)C(O)C1O (stereo partly specified)
[out] 3.56 µM

[in] // TGI lookup, key: CC(C)(C)C(=O)C(Cc1ccccc1)C(=O)C(C)(C)C
[out] > 100 µM

[in] // TGI lookup, key: Cc1ccc(S(=O)(=O)NC(=O)NC2=NC(C)(C)N(c3ccc(Cl)c(Cl)c3)C(N)=N2)cc1
[out] > 100 µM

[in] // TGI lookup, key: O=C(NCc1ccc(S(=O)(=O)c2cc(F)cc(F)c2)cc1)c1ccc2nccn2c1
[out] > 100 µM

----------
Test system: DMS 114 small cell lung
Method summary: NCI tumour cell line growth inhibition, 48 h
I'd be grateful if you could share measured TGI for these entries.

[in] Give the reported TGI for C/C(CCn1[nH]c(=O)ccc1=O)=N\OCCCc1ccccc1 (system: DMS 114 small cell lung).
[out] > 100 µM

[in] Give the reported TGI for OCCNCCOc1ccc(/C(=C(/Cl)c2ccccc2)c2ccccc2)cc1 (system: DMS 114 small cell lung).
[out] 29.6 µM

[in] Give the reported TGI for O=S1(=O)OCCOS(=O)(=O)C1Cl (system: DMS 114 small cell lung).
[out] > 100 µM

[in] Give the reported TGI for CCCCC#CS(=O)(=O)C(F)(F)F (system: DMS 114 small cell lung).
[out] > 100 µM

[in] Give the reported TGI for C=CCn1c2c(sc1=S)C(S)N=CN2 (stereo unspecified) (system: DMS 114 small cell lung).
[out] > 100 µM

[in] Give the reported TGI for CC(C(=O)n1c2ccccc2c2ccccc21)N(c1ccccc1)c1ccccc1 (stereo unspecified) (system: DMS 114 small cell lung).
[out] 32.5 µM

[in] Give the reported TGI for COc1cc(CC(C)N)ccc1O (stereo unspecified) (system: DMS 114 small cell lung).
[out] > 100 µM

[in] Give the reported TGI for CC1(C)OC2CC(=O)OCC23C1CC(=O)C1(C)C3CCC2(C)C(c3ccoc3)OC(=O)C3OC321 (stereo unspecified) (system: DMS 114 small cell lung).
[out] > 125 µM

[in] Give the reported TGI for O=c1c2ccccc2nc(-c2ccccc2)n1NC(=S)Nc1ccccc1 (system: DMS 114 small cell lung).
[out] 73.7 µM

[in] Give the reported TGI for CC(=O)OC1C2CCC1C1C2C2(Cl)C(Cl)=C(Cl)C1(Cl)C2(Cl)Cl (stereo unspecified) (system: DMS 114 small cell lung).
[out] 26.7 µM

[in] Give the reported TGI for CC1=C(c2cc(C(=O)Nc3ccc(Cl)cc3)nc(=S)[nH]2)Sc2ccccc2N1 (system: DMS 114 small cell lung).
[out] > 100 µM

----------
System: HT29 colon
Method summary: NCI tumour cell line growth inhibition, 48 h
Recorded metric: TGI

[in] // TGI lookup, key: N#Cc1c(C#N)c(-c2ccccc2)n(-c2ccccc2)c1N
[out] > 100 µM

[in] // TGI lookup, key: Nc1nc(N)c2cc(CNc3ccc(C(=O)NC(CC(=O)O)C(=O)O)c(Cl)c3)ccc2n1 (stereo unspecified)
[out] > 500 µM

[in] // TGI lookup, key: O=c1oc2ccc(Br)cc2c(=O)n1-c1ccc(F)cc1F
[out] 27.8 µM

[in] // TGI lookup, key: C=C1C(=O)OC2/C=C(/C)C3(O)OC(C)(CC(OC(=O)C(C)C)C12)CC3OC(C)=O (stereo unspecified)
[out] 22 µM

[in] // TGI lookup, key: c1ccc(-c2cnc(-c3ccc(-c4ncc(-c5ccccc5)o4)cc3)o2)cc1
[out] > 100 µM

[in] // TGI lookup, key: COCOc1ccc(C2(O)Oc3cc(OCOC)ccc3C2C)c(O)c1 (stereo unspecified)
[out] 32.2 µM

[in] // TGI lookup, key: Cn1ccnc1Sc1ccc(C=Nc2ccc3nc(SCC(=O)NC4CCCCC4)sc3c2)cc1[N+](=O)[O-]
[out] > 100 µM

[in] // TGI lookup, key: COc1cc(C=C2C(=O)NC(=S)NC2=O)cc(OC)c1OC
[out] > 100 µM

[in] // TGI lookup, key: CCOC(=O)Cn1c(=O)n(C)c(=O)c2c1ncn2Cc1ccccc1
[out] > 100 µM

[in] // TGI lookup, key: COC(=O)[C@H](C)NC(=O)[C@H](CSC)N1C(=O)N[C@@H](C(C)C)C1=O
[out] > 100 µM

[in] // TGI lookup, key: COc1ccc(Cc2cnc(NC(=O)c3ccc4c(c3)OCCO4)s2)cc1
[out] > 55.4 µM
